test system: Vero; assay: Cytotoxicity against African green monkey Vero cells assessed as inhibition of cell viability after 72 hrs by MTT assay; format: cell-based; details: Chlorocebus sabaeus
Task for the reader: assign each of the following molecules its reported pIC50.
Numbers only, as −log10 of the molar value.

| Compound | pIC50 |
| --- | --- |
| COc1ccc(N2C(=O)/C(=C/c3ccc(OCC(=O)Nc4ccccc4Cl)cc3)N=C2c2ccccc2)cc1 | 4.88 |

Here is another molecule to look at.
What measured pIC50 goes with `COc1cccc(N2C(=O)/C(=C/c3ccc(OCC(=O)Nc4ccc(C)cc4)cc3)N=C2c2ccccc2)c1` ? 4.76

* * *

target: Mitogen-activated protein kinase 1 (Homo sapiens); assay: Inhibition of ERK2 (unknown origin) using GFP-ATF2 as substrate after 1 hr by TR-FRET assay
Sequence (P28482 whole entry): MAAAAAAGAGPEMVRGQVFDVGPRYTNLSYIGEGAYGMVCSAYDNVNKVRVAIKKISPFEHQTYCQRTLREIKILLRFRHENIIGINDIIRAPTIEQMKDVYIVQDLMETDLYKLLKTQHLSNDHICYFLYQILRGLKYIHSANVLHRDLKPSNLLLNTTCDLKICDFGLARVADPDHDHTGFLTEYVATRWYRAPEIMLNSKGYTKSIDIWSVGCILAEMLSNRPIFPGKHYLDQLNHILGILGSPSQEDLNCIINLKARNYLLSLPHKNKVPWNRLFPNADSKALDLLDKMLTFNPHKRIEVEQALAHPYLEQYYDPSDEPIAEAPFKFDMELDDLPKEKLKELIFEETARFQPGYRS
Attribute Measured: pIC50
One number for each entry, as −log10 of the molar value.

| Compound | System | pIC50 |
| --- | --- | --- |
| COc1cccc(N2C(=O)/C(=C/c3ccc(OCC(=O)Nc4ccccc4)cc3)N=C2c2ccccc2)c1 | Mitogen-activated protein kinase 1 (Homo sapiens) | 7.27 |
| COc1cccc(NC(=O)COc2ccc(/C=C3\N=C(c4ccccc4)N(c4cccc(OC)c4)C3=O)cc2)c1 | Mitogen-activated protein kinase 1 (Homo sapiens) | 8.27 |
| COc1cccc(N2C(=O)/C(=C/c3ccc(OCC(=O)Nc4ccc(Cl)cc4)cc3)N=C2c2ccccc2)c1 | Mitogen-activated protein kinase 1 (Homo sapiens) | 8.34 |
| COc1ccc(N2C(=O)/C(=C/c3ccc(OCC(=O)Nc4ccc(Cl)cc4)cc3)N=C2c2ccccc2)cc1 | Mitogen-activated protein kinase 1 (Homo sapiens) | 8.35 |
| COc1ccc(NC(=O)COc2ccc(/C=C3\N=C(c4ccccc4)N(c4ccc(OC)cc4)C3=O)cc2)cc1 | Mitogen-activated protein kinase 1 (Homo sapiens) | 8.64 |

Each of the following entries comes with a recorded value; kindly state pIC50 for each.
1. COc1cccc(N2C(=O)/C(=C/c3ccc(OCC(=O)Nc4cccc(Cl)c4)cc3)N=C2c2ccccc2)c1
2. COc1ccc(N2C(=O)/C(=C/c3ccc(OCC(=O)Nc4cccc(OC)c4)cc3)N=C2c2ccccc2)cc1
3. COc1cccc(N2C(=O)/C(=C/c3ccc(OCC(=O)Nc4ccccc4OC)cc3)N=C2c2ccccc2)c1

[8.47, 7.68, 8.33]

// each listed molecule needs a value for pIC50
1. COc1cccc(N2C(=O)/C(=C/c3ccc(OCC(=O)Nc4ccc(C)cc4)cc3)N=C2c2ccccc2)c1
2. COc1ccc(N2C(=O)/C(=C/c3ccc(OCC(=O)Nc4ccc(C)cc4)cc3)N=C2c2ccccc2)cc1
3. COc1ccc(N2C(=O)/C(=C/c3ccc(OCC(=O)Nc4cccc(C)c4)cc3)N=C2c2ccccc2)cc1

8.49
7.37
7.11

Count: 5. Required value per item: pIC50.
1. COc1ccc(N2C(=O)/C(=C/c3ccc(OCC(=O)Nc4ccccc4OC)cc3)N=C2c2ccccc2)cc1
2. COc1ccc(NC(=O)COc2ccc(/C=C3\N=C(c4ccccc4)N(c4cccc(OC)c4)C3=O)cc2)cc1
3. COc1cccc(N2C(=O)/C(=C/c3ccc(OCC(=O)Nc4ccccc4C)cc3)N=C2c2ccccc2)c1
4. COc1ccc(N2C(=O)/C(=C/c3ccc(OCC(=O)Nc4ccccc4)cc3)N=C2c2ccccc2)cc1
5. COc1cccc(N2C(=O)/C(=C/c3ccc(OCC(=O)Nc4cccc(C)c4)cc3)N=C2c2ccccc2)c1

1: 7.05; 2: 8.37; 3: 7.36; 4: 7.64; 5: 7.37

Need pIC50, item `COc1ccc(N2C(=O)/C(=C/c3ccc(OCC(=O)Nc4ccccc4Cl)cc3)N=C2c2ccccc2)cc1` 8.46
